Source listed as PubChem BioAssay AID2060903.

system: 377384-186-R-J1-PDC complex spheroid viability; assay: Anticancer human tumor 377384-186-R-J1-PDC patient-derived pancreatic carcinoma cell line growth inhibition [RAS]; conditions: second compound 0.00316 µM; first compound 0.1 µM; stronger effect = lower value;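 further: spheroids exposed to compounds for seven days before readout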

COMPOUND: CC(=O)OC12COC1CC(O)C1(C)C(=O)C(O)C3=C(C)C(OC(=O)C(O)C(NC(=O)OC(C)(C)C)c4ccccc4)CC(O)(C(OC(=O)c4ccccc4)C21)C3(C)C (stereo not drawn) + C=CC(=O)N1CCN(c2nc(OCC3CCCN3C)nc3c(F)c(-c4nc(N)cc(C)c4C(F)(F)F)c(Cl)cc23)C(C)C1
MEASUREMENT TARGET: 377384-186-R-J1-PDC complex spheroid viability;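 further: spheroids exposed to compounds for seven days before readout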
viability, T/C (%): 11.3
--
COMPOUND: CC(C)n1nc(-c2ccc3oc(N)nc3c2)c2c(N)ncnc21 + C=CC(=O)N1CCN(c2nc(OCC3CCCN3C)nc3c(F)c(-c4nc(N)cc(C)c4C(F)(F)F)c(Cl)cc23)C(C)C1
MEASUREMENT TARGET: 377384-186-R-J1-PDC complex spheroid viability;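 further: spheroids exposed to compounds for seven days before readout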
viability, T/C (%): 21.1
--
COMPOUND: CC(C)NCC(C(=O)N1CCN(c2ncnc3c2C(C)CC3O)CC1)c1ccc(Cl)cc1 (stereo not drawn) + C=CC(=O)N1CCN(c2nc(OCC3CCCN3C)nc3c(F)c(-c4nc(N)cc(C)c4C(F)(F)F)c(Cl)cc23)C(C)C1
MEASUREMENT TARGET: 377384-186-R-J1-PDC complex spheroid viability;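 further: spheroids exposed to compounds for seven days before readout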
viability, T/C (%): 95
